B1: TRIM29 (parent)
chain: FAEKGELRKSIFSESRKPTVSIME

variants of: B1; test: protein stability index of a GFP-peptide fusion (GPS, HEK-293T) (PSI 1-6); higher = more stable; details: c terminus: a fixed tail appended;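 note: lentivirally expressed fusions sorted by FACS into six bins by GFP to DsRed ratio, PSI derived from sequencing read proportions per bin multiplied by bin number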
Documented protein stability index across a set of variants
quantity name: protein stability index

• FAEKGELRVSIFSESRKPTVSIME [K9V] = 2.74
• FAEKGELRKSIFSESRKFTVSIME [P18F] = 2.31
• FAEKGELRKSIFSESIKPTVSIME [R16I] = 1.78
• HAEKGELRKSIFSESRKPTVSIME [F1H] = 4.29
• FAEKGELRKSIFSESSKPTVSIME [R16S] = 1.8
• FAEKGELNKSIFSESRKPTVSIME [R8N] = 2.44
• TAEKGELRKSIFSESRKPTVSIME [F1T] = 3.95
• FAEKGELRKSIGSESRKPTVSIME [F12G] = 2.59
• FAEKGELRKSIFSESRKPHVSIME [T19H] = 1.75
• FAEKGELIKSIFSESRKPTVSIME [R8I] = 2.81
• FAEKGELRKSIFSESRKPVVSIME [T19V] = 2.56
• FAEKGELRKSIFSESRKPTVSLME [I22L] = 2.17
• FAEKGELEKSIFSESRKPTVSIME [R8E] = 2
• FAEKGELRKSIFSESRKPTVTIME [S21T] = 1.76
• FAEKGELRKSIFSESRKPTVSMME [I22M] = 1.49
• FAEKGELRKSIFSESRKPDVSIME [T19D] = 2.15
• SAEKGELRKSIFSESRKPTVSIME [F1S] = 3.58
• FAEKGELRKSIFSQSRKPTVSIME [E14Q] = 1.54
• FAEKGELRKSIFSESRKPTVSIYE [M23Y] = 2.2
• FAEKGELRKSIFPESRKPTVSIME [S13P] = 3.18
• FAEKGELRKSIFSESRKPTSSIME [V20S] = 2.34
• FAEKGELRKSVFSESRKPTVSIME [I11V] = 1.86
